Target: T1, rRv3167c (TetR-like regulator) (Mycobacterium tuberculosis, UniProt O53317 1-208)
T1 sequence: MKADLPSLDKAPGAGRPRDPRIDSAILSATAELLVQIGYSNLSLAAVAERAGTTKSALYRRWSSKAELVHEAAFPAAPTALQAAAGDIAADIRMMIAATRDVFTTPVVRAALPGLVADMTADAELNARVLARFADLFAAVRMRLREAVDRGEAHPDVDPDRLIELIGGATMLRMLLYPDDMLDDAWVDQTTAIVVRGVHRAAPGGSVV
Assay: ITC; ITC: 10 mM phosphate pH 7.2, 136 mM NaCl, 4 mM KCl, 25 C ([…]
Details: protein: recombinant; tags: N-terminal 6xHis (pET28c, NdeI/BamHI); chain copies: 2; blunt
MEASUREMENT KIND: Kd (µM)

1. palRv3167c (dsDNA) DNA 1: TAACGCTACCTAAAGTAGCGTAA DNA 2: TTACGCTACTTTAGGTAGCGTTA    12.3

Source of measurements: paper PMC5340868
